These entries and their values trace back to ChEMBL document CHEMBL3885861.

Species on record: Rattus norvegicus
Assay: Open TG-GATES - Regimen: Daily Repeat
Assay type: toxicity, organism-based, Sprague-Dawley
Parameters: regimen Daily Repeat, gender Male, age 6 weeks
Details: in vivo, po, 0 mg/kg, […], tissue Plasma, route gavage, dose level Control, time 7 day
Listed here are molecules together with their documented IP.
Output should be the measured figure followed by the unit it is expressed in.

Some solved cases for reference:
{"MOLECULE": "CCCC(CCC)C(=O)O [VALPROIC ACID]", "IP": "8 mg/dL"}
{"MOLECULE": "CC(=O)Oc1ccccc1C(=O)O [ASPIRIN]", "IP": "7.6 mg/dL"}
{"MOLECULE": "NC(=O)N/N=C/c1ccc([N+](=O)[O-])o1 [NITROFURAZONE]", "IP": "7.5 mg/dL"}
{"MOLECULE": "CO[C@H]1/C=C/O[C@@]2(C)Oc3c(C)c(O)c4c(O)c(c(/C=N/N5CCN(C)CC5)c(O)c4c3C2=O)NC(=O)/C(C)=C\\C=C\\[C@H](C)[C@H](O)[C@@H](C)[C@@H](O)[C@@H](C)[C@H](OC(C)=O)[C@@H]1C [RIFAMPIN]", "IP": "8.3 mg/dL"}
{"MOLECULE": "CSc1ccc2c(c1)N(CCC1CCCCN1C)c1ccccc1S2 (stereo not drawn) [THIORIDAZINE]", "IP": "9 mg/dL"}

Recorded result, NC(=O)N1c2ccccc2C=Cc2ccccc21 [CARBAMAZEPINE] , IP: 7.5 mg/dL

So for O=C(O)c1cn(C2CC2)c2cc(N3CCNCC3)c(F)cc2c1=O [CIPROFLOXACIN] , the logged IP turned out to be 8.6 mg/dL

The recorded IP for C[C@H](CS)C(=O)N1CCC[C@H]1C(=O)O [CAPTOPRIL] is 8.1 mg/dL
